System: Vero
Experiment: Cytotoxicity against African green monkey Vero cells measured after 72 hrs by CellTiter 96 aqueous non-radioactive cell proliferation assay
Type: cell-based
Settings: Chlorocebus sabaeus
RESULT_TYPE: IC50

[[record]]
compound = "COc1nc2ccc(Br)cc2cc1[C@@H](c1ccccc1)[C@@](O)(CCN(C)C)c1cccc2ccccc12 [BEDAQUILINE]"
experimental_result = "> 10 µg/mL"

[[record]]
compound = "COc1ccn2nc(C)c(C(=O)NCc3ccc(-c4ccc(OC(F)(F)F)cc4)c(OC)c3)c2c1"
experimental_result = "11.8 µg/mL"

[[record]]
compound = "CO[C@H]1/C=C/O[C@@]2(C)Oc3c(C)c(O)c4c(O)c(c(/C=N/N5CCN(C)CC5)c(O)c4c3C2=O)NC(=O)/C(C)=C\\C=C\\[C@H](C)[C@H](O)[C@@H](C)[C@@H](O)[C@@H](C)[C@H](OC(C)=O)[C@@H]1C [RIFAMPIN]"
experimental_result = "> 100 µg/mL"

[[record]]
compound = "COc1ccn2nc(C)c(C(=O)NCc3ccc(-c4ccc(OC(F)(F)F)cc4)c(F)c3)c2c1"
experimental_result = "> 50 µg/mL"

[[record]]
compound = "COc1ccn2nc(C)c(C(=O)NCc3ccc(-c4ccc(OC(F)(F)F)cc4)cn3)c2c1"
experimental_result = "> 50 µg/mL"

[[record]]
compound = "COc1ccn2nc(C)c(C(=O)NCc3ccc(-c4ccc(OC(F)(F)F)cc4)nc3)c2c1"
experimental_result = "28.4 µg/mL"

[[record]]
compound = "COc1ccn2nc(C)c(C(=O)NCc3ccc(-c4ccc(OC(F)(F)F)cc4)cc3F)c2c1"
experimental_result = "> 50 µg/mL"

